# study target: BuChE (Homo sapiens, UniProt P06276)
# Construct: BuChE was obtained from human plasma (purchased from Beijing Red Cross Blood Center China); tissue Beijing Red Cross Blood Center China; host or cells: human plasma, diluted 200-fold with 0.05 M PBS
# Sequence (P06276 29-602): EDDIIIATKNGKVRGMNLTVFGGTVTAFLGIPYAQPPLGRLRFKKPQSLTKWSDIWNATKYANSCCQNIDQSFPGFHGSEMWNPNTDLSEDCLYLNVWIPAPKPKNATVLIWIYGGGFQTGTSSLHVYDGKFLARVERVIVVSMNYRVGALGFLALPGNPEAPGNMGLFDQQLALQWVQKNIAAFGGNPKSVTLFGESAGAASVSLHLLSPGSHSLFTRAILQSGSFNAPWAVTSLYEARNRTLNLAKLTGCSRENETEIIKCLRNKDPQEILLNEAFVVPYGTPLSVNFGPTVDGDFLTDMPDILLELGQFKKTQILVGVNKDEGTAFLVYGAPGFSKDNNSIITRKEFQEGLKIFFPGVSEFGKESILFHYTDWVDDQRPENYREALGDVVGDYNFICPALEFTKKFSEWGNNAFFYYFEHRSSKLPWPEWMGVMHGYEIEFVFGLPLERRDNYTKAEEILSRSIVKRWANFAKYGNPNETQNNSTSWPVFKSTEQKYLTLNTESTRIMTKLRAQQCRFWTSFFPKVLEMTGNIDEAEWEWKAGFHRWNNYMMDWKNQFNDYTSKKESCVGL
# experimental details: In vitro BuChE inhibitory assay (Ellman-type, human plasma)
# Assay type: biochemical
# conditions used: BuChE from human plasma; BuSCh substrate; 60 min, 37 °C; read-out: IC50(μM) BuChE
# key: entry, value: IC50
metric: IC50 (µM)

| mol smiles | metric | unit string | inequality sign | observed value |
| --- | --- | --- | --- | --- |
| CC1CCN(CC(=O)c2ccc(-c3ccc(C(=O)CN4CCC(C)CC4)cc3)cc2)CC1 | IC50 | µM | = | 36.6 |
| CN(C)CC(=O)c1ccc(C(C)(C)c2ccc(C(=O)CN(C)C)cc2)cc1 | IC50 | µM | = | 5.95 |
| O=C(CCN1CCCCC1)c1ccc(Sc2ccc(C(=O)CCN3CCCCC3)cc2)cc1 | IC50 | µM | = | 3.44 |
| O=C(CCCCN1CCC1)c1ccc(CCc2ccc(C(=O)CCCCN3CCC3)cc2)cc1 | IC50 | µM | > | 200 |
| O=C(CCN1CCCCC1)c1ccc(-c2ccc(C(=O)CN3CCCCC3)cc2)cc1 | IC50 | µM | = | 4.87 |
| O=C(CCN1CCCCC1)c1ccc2sc3ccc(C(=O)CCN4CCCCC4)cc3c2c1 | IC50 | µM | = | 1.71 |
| CN(C)CCC(=O)c1ccc(C(C)(C)c2ccc(C(=O)CCN(C)C)cc2)cc1 | IC50 | µM | = | 6 |
| CN1CCN(CCC(=O)c2ccc(Cc3ccc(C(=O)CCN4CCN(C)CC4)cc3)cc2)CC1 | IC50 | µM | = | 24.4 |
| CN(C)CCC(=O)c1ccc(-c2ccc(C(=O)CCN(C)C)cc2)cc1 | IC50 | µM | < | 1 |
| O=C(CCN1CCCCC1)c1ccc(CCc2ccc(C(=O)CCN3CCCCC3)cc2)cc1 | IC50 | µM | = | 3.41 |
| CN(CCC(=O)c1ccc(-c2ccc(C(=O)CCN(C)Cc3ccccc3)cc2)cc1)Cc1ccccc1 | IC50 | µM | = | 6.56 |
| COc1ccc2[nH]cc(CCNCC(=O)c3ccc(-c4ccc(C(=O)CNCCc5c[nH]c6ccc(OC)cc56)cc4)cc3)c2c1 | IC50 | µM | > | 200 |
| O=C(CCN1CCCCC1)c1ccc(-c2ccc(C(=O)CCN3CCCCC3)cc2F)cc1 | IC50 | µM | = | 0.44 |
| O=C(CCN1CCOCC1)c1ccc(Cc2ccc(C(=O)CCN3CCOCC3)cc2)cc1 | IC50 | µM | = | 7.65 |
| CC(C)(c1ccc(C(=O)CCN2CCCCC2)cc1)c1ccc(C(=O)CCN2CCCCC2)cc1 | IC50 | µM | = | 3.09 |
| O=C(COCCN1CCCCC1)c1ccc(-c2ccc(C(=O)OCCN3CCCCC3)cc2)cc1 | IC50 | µM | > | 200 |
| O=C(CCNC1CCCCC1)c1ccc(-c2ccc(C(=O)CCNC3CCCCC3)cc2)cc1 | IC50 | µM | = | 1.91 |
| O=C(CCN1CCC(N2CCCCC2)CC1)c1ccc(-c2ccc(C(=O)CCN3CCC(N4CCCCC4)CC3)cc2)cc1 | IC50 | µM | > | 200 |
| O=C(c1ccc(-c2ccc(C(=O)N3CCCCC3)cc2)cc1)N1CCCCC1 | IC50 | µM | = | 2.22 |
| C=C(CN1CCCCC1)C(=O)c1ccc(-c2ccc(C(=O)C(=C)CN3CCCCC3)cc2)cc1 | IC50 | µM | = | 1.55 |
| CC(C)(c1ccc(C(=O)CN2CCCCC2)cc1)c1ccc(C(=O)CN2CCCCC2)cc1 | IC50 | µM | = | 2.93 |
| O=C(CCN1CCCCC1)c1ccc(Cc2ccc(C(=O)CCN3CCCCC3)cc2)cc1 | IC50 | µM | = | 4.2 |
| CCN(CC)CCC(=O)c1ccc(-c2ccc(C(=O)CCN(CC)CC)cc2)cc1 | IC50 | µM | < | 1 |
| CN(C)CCCCC(=O)c1ccc(CCc2ccc(C(=O)CCCCN(C)C)cc2)cc1 | IC50 | µM | = | 2.77 |
| O=C(CCN1CCCCC1)c1ccc([S+]([O-])c2ccc(C(=O)CCN3CCCCC3)cc2)cc1 | IC50 | µM | > | 200 |
| O=C(CCN1CCOCC1)c1ccc(-c2ccc(C(=O)CCN3CCOCC3)cc2)cc1 | IC50 | µM | < | 1 |
| CN1CCN(CC(=O)c2ccc(Cc3ccc(C(=O)CN4CCN(C)CC4)cc3)cc2)CC1 | IC50 | µM | = | 40 |
| O=C(CCN1CCCCC1)c1ccc(Oc2ccc(C(=O)CCN3CCCCC3)cc2)cc1 | IC50 | µM | = | 5.68 |
| O=C(CCN1CCCCC1)c1ccc2oc3ccc(C(=O)CCN4CCCCC4)cc3c2c1 | IC50 | µM | = | 0.61 |
| CN(C)CCC(=O)c1ccc(Cc2ccc(C(=O)CCN(C)C)cc2)cc1 | IC50 | µM | = | 1.72 |
| CC(C)(c1ccc(C(=O)CCN2CCOCC2)cc1)c1ccc(C(=O)CCN2CCOCC2)cc1 | IC50 | µM | = | 16.3 |
| O=C(CCCN1CCCCC1)c1ccc(-c2ccc(C(=O)CCN3CCCCC3)cc2)cc1 | IC50 | µM | = | 1.88 |
| O=C(CCN1CCCCC1)c1ccc2c(c1)c1cc(C(=O)CCN3CCCCC3)ccc1n2C(=O)CCN1CCCCC1 | IC50 | µM | = | 4.79 |

----------
# study target: BuChE (Homo sapiens)
# Construct: BuChE was obtained from human plasma (purchased from Beijing Red Cross Blood Center China); tissue Beijing Red Cross Blood Center China; host or cells: human plasma, diluted 200-fold with 0.05 M PBS
# experimental details: In vitro BuChE inhibitory assay (Ellman-type, human plasma)
# Type: biochemical
# conditions used: IC50(μM) BuChE, BuChE from human plasma; BuSCh substrate; 60 min, 37 °C

| compound | unit string | IC50 |
| --- | --- | --- |
| CCN(C)C(=O)Oc1ccc(-c2ccc(C(=O)CCN3CCCCC3)cc2)cc1 [Compound 7-5] | µM | 0.2 |
| CCN(C)C(=O)Oc1ccc(-c2ccc(OC(=O)N(C)CC)cc2)cc1 [Compound 7-3] | µM | 0.06 |

----------
# study target: AChE (Rattus norvegicus, UniProt P37136)
# Sequence (P37136 32-614): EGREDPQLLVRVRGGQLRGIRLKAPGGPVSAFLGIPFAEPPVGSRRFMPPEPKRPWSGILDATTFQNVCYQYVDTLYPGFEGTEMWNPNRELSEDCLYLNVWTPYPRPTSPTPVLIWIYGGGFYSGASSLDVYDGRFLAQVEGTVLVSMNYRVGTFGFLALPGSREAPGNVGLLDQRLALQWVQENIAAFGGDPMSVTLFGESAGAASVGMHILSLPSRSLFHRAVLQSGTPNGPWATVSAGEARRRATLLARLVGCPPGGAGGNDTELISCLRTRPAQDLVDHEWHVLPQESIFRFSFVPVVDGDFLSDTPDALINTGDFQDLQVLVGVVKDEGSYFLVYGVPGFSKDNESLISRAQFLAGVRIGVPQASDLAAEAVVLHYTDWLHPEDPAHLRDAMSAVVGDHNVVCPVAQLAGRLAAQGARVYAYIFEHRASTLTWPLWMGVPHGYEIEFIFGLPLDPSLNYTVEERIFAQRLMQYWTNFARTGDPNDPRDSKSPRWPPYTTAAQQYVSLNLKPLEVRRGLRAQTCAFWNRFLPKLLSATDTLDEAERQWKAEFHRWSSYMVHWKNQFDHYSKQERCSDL
pKi: −log10 of the molar value.
# key: entry, value: pKi

| mol smiles | study target | pKi |
| --- | --- | --- |
| O=C(CCN1CCCCC1)c1ccc2oc3ccc(C(=O)CCN4CCCCC4)cc3c2c1 | AChE (Rattus norvegicus, UniProt P37136) | 6.38 |
| O=C(CCN1CCCCC1)c1ccc(-c2ccc(C(=O)CCN3CCCCC3)cc2F)cc1 | AChE (Rattus norvegicus, UniProt P37136) | 6.26 |
| O=C(CCN1CCCCC1)c1ccc(-c2ccc(C(=O)CCN3CCCCC3)cc2)cc1 | AChE (Rattus norvegicus, UniProt P37136) | 5.78 |

----------
# study target: AChE (Rattus norvegicus, UniProt P37136)
# Construct: AChE was derived from the SD rat brains by homogenizing the brain with 20-fold saline solution; from tissue; host or cells: SD rat brain homogenate (supernatant after 800 x g)
# experimental details: In vitro AChE inhibitory assay (Ellman's method)
# Type: biochemical
# conditions used: AChE from SD rat brain homogenate; ASCh substrate; 60 min, 37 °C; read-out: IC50(μM) AChE

| mol smiles | study target | IC50, µM |
| --- | --- | --- |
| CN(C)CCCCC(=O)c1ccc(CCc2ccc(C(=O)CCCCN(C)C)cc2)cc1 | AChE (Rattus norvegicus, UniProt P37136) | 3.96 |
| COc1ccc2[nH]cc(CCNCC(=O)c3ccc(-c4ccc(C(=O)CNCCc5c[nH]c6ccc(OC)cc56)cc4)cc3)c2c1 | AChE (Rattus norvegicus, UniProt P37136) | 9.52 |
| CN1CCN(CC(=O)c2ccc(Cc3ccc(C(=O)CN4CCN(C)CC4)cc3)cc2)CC1 | AChE (Rattus norvegicus, UniProt P37136) | 48.5 |
| O=C(CCN1CCCCC1)c1ccc(Oc2ccc(C(=O)CCN3CCCCC3)cc2)cc1 | AChE (Rattus norvegicus, UniProt P37136) | 0.89 |
| O=C(CCN1CCCCC1)c1ccc(-c2ccc(C(=O)CCN3CCCCC3)cc2F)cc1 | AChE (Rattus norvegicus, UniProt P37136) | 0.03 |
| O=C(CCN1CCCCC1)c1ccc2oc3ccc(C(=O)CCN4CCCCC4)cc3c2c1 | AChE (Rattus norvegicus, UniProt P37136) | 0.06 |
| O=C(CCN1CCCCC1)c1ccc2sc3ccc(C(=O)CCN4CCCCC4)cc3c2c1 | AChE (Rattus norvegicus, UniProt P37136) | 2.03 |
| O=C(CCCN1CCCCC1)c1ccc(-c2ccc(C(=O)CCN3CCCCC3)cc2)cc1 | AChE (Rattus norvegicus, UniProt P37136) | 0.41 |
